Organism: Rattus norvegicus
ASSAY OVERVIEW: Open TG-GATES - Regimen: Daily Repeat
Type: toxicity, organism-based, Sprague-Dawley
Design: regimen Daily Repeat, gender Male, age 6 weeks
CONDITION NOTES: in vivo, po, 300 mg/kg, 72 h, tissue Plasma, route gavage, dose level Middle, time 3 day
REPORTED METRIC: BUN (mg/dL)
Form entry: value (mg/dL) — number only.

| COMPOUND | BUN, mg/dL |
| --- | --- |
| COC(=O)C1=C(C)NC(C)=C(C(=O)OC)C1c1ccccc1[N+](=O)[O-] [NIFEDIPINE] | 14.2 |

Now consider a different compound.
Entry O=C(OC[C@H]1O[C@@H](OC(=O)c2cc(O)c(O)c(OC(=O)c3cc(O)c(O)c(O)c3)c2)[C@H](OC(=O)c2cc(O)c(O)c(OC(=O)c3cc(O)c(O)c(O)c3)c2)[C@@H](OC(=O)c2cc(O)c(O)c(OC(=O)c3cc(O)c(O)c(O)c3)c2)[C@@H]1OC(=O)c1cc(O)c(O)c(OC(=O)c2cc(O)c(O)c(O)c2)c1)c1cc(O)c(O)c(OC(=O)c2cc(O)c(O)c(O)c2)c1 [TANNIC ACID] , BUN reported as 17.8
